# tested-target: human plasma-derived FIXa (Haematologic Technologies Inc) (human, UniProt P00740 47-191; P00740 227-461)
# Sequence (P00740 47-191, chain 1 of 2): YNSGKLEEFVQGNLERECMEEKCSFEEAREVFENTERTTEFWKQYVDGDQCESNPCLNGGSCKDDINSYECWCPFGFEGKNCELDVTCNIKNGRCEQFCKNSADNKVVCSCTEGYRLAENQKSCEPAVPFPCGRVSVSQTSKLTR
# Sequence (P00740 227-461, chain 2 of 2): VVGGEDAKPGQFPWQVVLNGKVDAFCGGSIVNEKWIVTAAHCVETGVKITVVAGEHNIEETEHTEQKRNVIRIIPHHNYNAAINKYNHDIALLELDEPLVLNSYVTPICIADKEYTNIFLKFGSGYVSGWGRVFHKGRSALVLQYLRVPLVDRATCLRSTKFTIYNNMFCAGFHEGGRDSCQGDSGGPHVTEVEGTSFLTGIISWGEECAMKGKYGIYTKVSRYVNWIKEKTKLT
# test-summary: cell-based or functional assay
property-name: FXa generation rate at 25 nM mAb (pM/min)
Return type: number; implicit unit pM/min.

Study these solved cases before continuing.
1) mAb1-4624 (antibody, V domains shown) VH: EVQLVQSGAEVKKPGESLRISCKGSGYRFTSYWIGWVRQMPGKGLEWMGMIDPTDSYTDYGPSFRGHVTISADKSISTAYLQWSSLKASDTAMYYCARVRIMSGAFDIWGQGTMVTVSS VL: DIVMTQSPLSLPVTPGEPASISCRSSQSLLHSTWYNYLNWYLQKPGQSPQLLIYLGSNRASGVPDRFSGSGSGTDFTLKISRVEAEDVGVYYCMQVLHIPYTFGQGTKLEIK : 851
2) mAb1-4763 (antibody, V domains shown) VH: EVQLVESGGGLVQPGRSLRLSCAASGFTFGDYAMHWVRQAPGKGLEWVSGISWNSGSIGYAKSVKGRFTISRDNAKNSLYLQMNSLRAEDTALYYCAKGQYDEDAGMDVWGQGTTVTVSS VL: DIQMTQSPSSLSASVGDRVTITCRASQWISSYLNWYQQKPGKAPKLLIYAASSLPSGVPSRFSGSGSGTDFTLTISSLQPEDFATYYCQQGYPTWTFGGGTKVEIK : 373

# binder mAb1-4707 (antibody, V domains shown) VH: EVQLVESGGGLVQPGRSLRLSCAASGFTFGDYAMHWVRQAPGKGLEWVSGISWVSGSIGYARSVKGRFTISRDNAKNSLYLQMNSLRAEDTALYYCAKGQYDEDAGMDVWGQGTTVTVSS VL: DIQMTQSPSSLSASVGDRVTITCRASQSIRSYLNWYQQKPGKAPKLLIYAASSLQSGVPSRFSGSGSGTDFTLTISSLQPEDFATYYCQQGYPTWTFGGGTKVEIK ; its FXa generation rate at 25 nM mAb = 685
